method: Pharmacokinetic study of the Q-markers in beagle dogs
assay conditions: beagle, dog, in vivo, iv
parameter: Tmax (min)
Kindly provide the numeric value in min only, without the unit symbol.

Could you share which Tmax value was measured for "COc1ccc2c(c1OC)CN(C)CCc1cc3c(cc1C(=O)C2)OCO3" ?
5

###

method: Pharmacokinetic study of the Q-markers in beagle dogs
assay conditions: beagle, dog, in vivo, po
parameter: AUC (ng·h/mL)
Kindly provide the numeric value in ng·h/mL only, without the unit symbol.

Could you share which AUC value was measured for COc1ccc2c(c1OC)CN(C)CCc1cc3c(cc1C(=O)C2)OCO3 [α-allocryptopine] ?
8.31

###

method: Pharmacokinetic study of the Q-markers in beagle dogs
assay conditions: beagle, dog, plasma, po
parameter: AUC(0-inf) (ng·h/mL)
Kindly provide the numeric value in ng·h/mL only, without the unit symbol.

Worked examples follow.
- compound: "COc1cc2c(cc1OC)[C@@H]1Cc3ccc(OC)c(OC)c3CN1CC2 [Tetrahydropalmatine, tetrahydropalmatine]"
  units of measure: "ng·h/mL"
  AUC(0-inf): 137
- compound: "COc1c2ccoc2c(OC[C@@H](O)C(C)(C)O)c2oc(=O)ccc12"
  units of measure: "ng·h/mL"
  AUC(0-inf): 65.3

// next entry
Could you share which AUC(0-inf) value was measured for "COc1cc2c(cc1OC)[C@H]1[C@@H](C)c3ccc(OC)c(OC)c3CN1CC2" ?
81.1

###

method: Solubility of Q-markers in dissolution media, dose number D0
assay conditions: water, thermodynamic from solid
parameter: solubility at 24 h (µg/mL)
Kindly provide the numeric value in µg/mL only, without the unit symbol.

Worked examples follow.
- molecule: "COc1c2ccoc2c(OC[C@@H](O)C(C)(C)O)c2oc(=O)ccc12 [Byakangelicin, byakangelicin]"
  units of measure: "µg/mL"
  solubility at 24 h: 35.9
- molecule: "COc1cc2c(cc1OC)[C@H]1[C@@H](C)c3ccc(OC)c(OC)c3CN1CC2 [Corydaline, corydaline]"
  units of measure: "µg/mL"
  solubility at 24 h: 5.03

Could you share which solubility at 24 h value was measured for COc1cc2c(cc1OC)[C@@H]1Cc3ccc(OC)c(OC)c3CN1CC2 [Tetrahydropalmatine, tetrahydropalmatine] ?
18.9

Could you share which solubility at 24 h value was measured for COc1ccc2c(c1OC)CN(C)CCc1cc3c(cc1C(=O)C2)OCO3 [α-allocryptopine] ?
2380

###

Listed next: entries and their corresponding AUC.
method: External validation of IVIVC model with another brand of YZTs
assay conditions: beagle, dog, blood, po

- molecule: "COc1cc2c(cc1OC)[C@H]1[C@@H](C)c3ccc(OC)c(OC)c3CN1CC2"
  AUC: "34.3 ng·h/mL"
- molecule: "COc1c2ccoc2c(OC[C@@H](O)C(C)(C)O)c2oc(=O)ccc12"
  AUC: "54.5 ng·h/mL"
- molecule: "COc1ccc2c(c1OC)CN(C)CCc1cc3c(cc1C(=O)C2)OCO3"
  AUC: "2.04 ng·h/mL"

// next entry
Could you share which AUC value was measured for COc1cc2c(cc1OC)[C@@H]1Cc3ccc(OC)c(OC)c3CN1CC2 [Tetrahydropalmatine, tetrahydropalmatine] ?
59.9 ng·h/mL

###

method: Pharmacokinetic study of the Q-markers in beagle dogs
assay conditions: beagle, dog, in vivo, po
parameter: Cmax (ng/mL)
Kindly provide the numeric value in ng/mL only, without the unit symbol.

Could you share which Cmax value was measured for "COc1ccc2c(c1OC)CN(C)CCc1cc3c(cc1C(=O)C2)OCO3" ?
3.51
